Test system: Stat5 phosphorylation in NK-92 cells
Assay: Western blotting assay for Stat5
Type: cell-based
Conditions: NK92, 1 hour, IL-2 stimulation, read-out: Stat5 inhibition
pIC50: −log10 of the molar value.
readout: pIC50

# count of solved cases: 7
- molecule: "C=CC(=O)Nc1cccc(Oc2nc(Nc3ccc(N[C@H]4CCN(CCF)C4)cc3)ncc2OC)c1"
  measuredValue: "≤ 6.40"
- molecule: "C=CC(=O)Nc1ccccc1Nc1nc(Nc2ccc(N3CCN(CCF)CC3)cc2)ncc1F"
  measuredValue: "6.40 to 6.70"
- molecule: "C=CC(=O)Nc1cccc(Oc2nc(Nc3ccc(NCCOC)cc3)ncc2OC)c1 [Compound I-32a]"
  measuredValue: "≤ 6.40"
- molecule: "C=CC(=O)Nc1cccc(Nc2nc(Nc3ccc(N4CCN(CCF)CC4)c(F)c3)ncc2F)c1"
  measuredValue: "6.40 to 6.70"
- molecule: "C=CC(=O)Nc1cccc(Nc2nc(Nc3ccc(N4CCN(CCF)CC4)c(F)c3)ncc2OC)c1"
  measuredValue: "≤ 6.40"
- molecule: "C=CC(=O)Nc1cccc(Oc2nc(Nc3ccc(N4CCN(CCOC)CC4)cc3)ncc2OC)c1 [Compound I-25a]"
  measuredValue: "≤ 6.40"
- molecule: "C=CC(=O)Nc1cccc(Oc2nc(Nc3ccc(N4CCN(C)CC4)c(F)c3)ncc2OC)c1"
  measuredValue: "6.40 to 6.70"

For the next question, use this molecule.
Input C=CC(=O)Nc1cccc(Oc2nc(Nc3ccc4c(c3)CN(CCOC)C4)ncc2OC)c1 [Compound I-50a] . Output pIC50: ≤ 6.40

###

Target: free Btk protein from Ramos cells (Homo sapiens)
Construct: endogenous in cells; host or cells: Ramos cells (ATCC)
Sequence (Q06187 whole entry): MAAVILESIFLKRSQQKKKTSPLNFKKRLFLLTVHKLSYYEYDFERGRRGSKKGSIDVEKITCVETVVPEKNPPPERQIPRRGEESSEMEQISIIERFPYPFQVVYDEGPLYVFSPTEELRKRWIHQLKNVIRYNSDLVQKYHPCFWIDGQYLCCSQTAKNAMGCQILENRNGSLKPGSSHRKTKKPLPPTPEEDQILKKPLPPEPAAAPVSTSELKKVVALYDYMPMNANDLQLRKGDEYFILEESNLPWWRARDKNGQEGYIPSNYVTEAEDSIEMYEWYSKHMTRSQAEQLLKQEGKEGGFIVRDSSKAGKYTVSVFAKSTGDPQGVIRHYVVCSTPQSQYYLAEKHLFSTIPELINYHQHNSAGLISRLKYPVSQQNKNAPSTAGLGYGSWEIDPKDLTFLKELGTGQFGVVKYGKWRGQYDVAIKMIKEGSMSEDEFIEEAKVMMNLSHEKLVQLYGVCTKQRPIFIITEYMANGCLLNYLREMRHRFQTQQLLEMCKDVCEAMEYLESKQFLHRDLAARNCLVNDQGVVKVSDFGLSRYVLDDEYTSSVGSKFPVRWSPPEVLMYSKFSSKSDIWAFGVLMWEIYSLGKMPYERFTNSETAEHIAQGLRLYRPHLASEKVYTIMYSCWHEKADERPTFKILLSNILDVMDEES
Assay: Btk target site occupancy ELISA assay
Format: cell-based
Conditions: 1 h, ELISA, read-out: Btk Occupancy Assay (IC50)
This listing pairs molecules with measured IC50.

Here is how some molecules turned out for IC50.
- molecule: "C=CC(=O)Nc1cccc(Oc2nc(Nc3ccc(N4CCN(C)CC4)cc3)ncc2OC)c1"
  IC50: "≤ 10 nM"
- molecule: "C=CC(=O)Nc1cccc(Oc2nc(Nc3ccc(N4CCN(CCOC)CC4)cc3)ncc2OC)c1 [Compound I-25a]"
  IC50: "≤ 10 nM"
- molecule: "C=CC(=O)Nc1cccc(Oc2nc(Nc3ccc(N[C@H]4CCN(CCF)C4)cc3)ncc2OC)c1"
  IC50: "≤ 10 nM"
- molecule: "C=CC(=O)Nc1cccc(Oc2nc(Nc3ccc(N(C)[C@H]4CCN(C(C)=O)C4)cc3)ncc2OC)c1 [Compound I-58a]"
  IC50: "≤ 10 nM"
- molecule: "C=CC(=O)Nc1cccc(Oc2nc(Nc3ccc(N[C@H]4CCN(CCF)C4)cc3)ncc2F)c1"
  IC50: "≤ 10 nM"

Turning to the following molecule.
C=CC(=O)Nc1cccc(Oc2nc(Nc3ccc(OCCOC)cc3)nc3[nH]ccc23)c1 tested on free Btk protein from Ramos cells (Homo sapiens) gave IC50: 10 to 100 nM

###

Target: Btk (Tyr223) phosphorylation in Ramos cells (Homo sapiens, UniProt Q06187)
Construct: endogenous in cells; host or cells: Ramos cells (ATCC)
Sequence (Q06187 whole entry): as above
Assay: Btk Tyr223 phosphorylation inhibition, western blotting assay (Example 72)
Assay type: cell-based
Conditions: Btk Tyr223 phosphorylation, 45 min, 12 μg/mL IgM, read-out: BTK Inhibition
# key: entry, value: IC50

A selection of reference data follows.
- smilesRecord: "C=CC(=O)Nc1ccccc1Nc1nc(Nc2ccc(N3CCN(CCF)CC3)cc2)ncc1F"
  targetUnderTest: "Btk (Tyr223) phosphorylation in Ramos cells (Homo sapiens, UniProt Q06187)"
  measuredValue: "< 0.01 µM"
- smilesRecord: "C=CC(=O)Nc1cccc(Oc2nc(Nc3ccc(N4CCN(CCF)CC4)c(F)c3)ncc2F)c1"
  targetUnderTest: "Btk (Tyr223) phosphorylation in Ramos cells (Homo sapiens, UniProt Q06187)"
  measuredValue: "< 0.01 µM"
- smilesRecord: "C=CC(=O)Nc1cccc(Nc2nc(Nc3ccc(N4CCN(CCF)CC4)c(F)c3)ncc2F)c1"
  targetUnderTest: "Btk (Tyr223) phosphorylation in Ramos cells (Homo sapiens, UniProt Q06187)"
  measuredValue: "< 0.01 µM"
- smilesRecord: "C=CC(=O)Nc1cccc(Nc2nc(Nc3ccc(N[C@H]4CCN(CCF)C4)cc3)ncc2F)c1"
  targetUnderTest: "Btk (Tyr223) phosphorylation in Ramos cells (Homo sapiens, UniProt Q06187)"
  measuredValue: "< 0.01 µM"

For this molecule ( C=CC(=O)Nc1cccc(Oc2nc(Nc3ccc(N4CCN(CCF)CC4)cc3)ncc2F)c1 ), measured IC50 is 0.01 to 0.1 µM

// recorded IC50 for C=CC(=O)Nc1cccc(Oc2nc(Nc3ccc(OCCOC)cc3)nc3[nH]ccc23)c1 : < 0.01 µM

get_value(item= C=CC(=O)Nc1cccc(Nc2nc(Nc3ccc(N4CCN(CCF)CC4)c(F)c3)ncc2OC)c1 , readout=IC50) returns 0.01 to 0.1 µM

Item: C=CC(=O)Nc1cccc(Nc2nc(Nc3ccc(N4CCN(CCF)CC4)cc3)ncc2OC)c1 | IC50: < 0.01 µM

For this molecule ( C=CC(=O)Nc1cccc(Nc2nc(Nc3ccc(N[C@@H]4CCN(CCF)C4)cc3)ncc2F)c1 ), measured IC50 is < 0.01 µM

###

Tested on: Stat5 phosphorylation in NK-92 cells
Experiment: Western blotting assay for Stat5
Assay type: cell-based
Settings: NK92, 1 hour, IL-2 stimulation, read-out: Stat5 inhibition
pIC50: −log10 of the molar value.
readout: pIC50

Completed entries (count: 3):
- molecule: "C=CC(=O)Nc1cccc(Oc2nc(Nc3ccc(N4CCN(C)CC4)c(F)c3)ncc2O)c1 [Compound I-23a]"
  pIC50: "≤ 6.40"
- molecule: "C=CC(=O)Nc1cccc(Oc2nc(Nc3ccc(N(C)CCOC)cc3)nc3[nH]ccc23)c1 [Compound I-41a]"
  pIC50: "6.40 to 6.70"
- molecule: "C=CC(=O)Nc1cccc(Nc2nc(Nc3ccc(N[C@H]4CCN(CCOC)C4)cc3)ncc2OC)c1 [Compound I-31a]"
  pIC50: "≤ 6.40"

Assay Stat5 phosphorylation in NK-92 cells, sample C=CC(=O)Nc1cccc(Oc2nc(Nc3ccc(N[C@H]4CCN(CCOC)C4)cc3)nc3[nH]ccc23)c1 [Compound I-40a] , pIC50 read: ≤ 6.40

Record C=CC(=O)Nc1cccc(Oc2nc(Nc3ccc4c(ccn4CCF)c3)ncc2OC)c1 [Compound I-43a] has Stat5 phosphorylation in NK-92 cells pIC50 equal to 6.40 to 6.70

Stat5 phosphorylation in NK-92 cells data for C=CC(=O)Nc1cccc(Oc2nc(Nc3ccc(N(C)CCOC)cc3)ncc2OC)c1 [Compound I-35a] ; its pIC50: 6.40 to 6.70

// returns pIC50 for C=CC(=O)Nc1cccc(Oc2nc(Nc3ccc(N[C@H]4CCN(CCOC)C4)cc3)ncc2OC)c1 [Compound I-30a] with Stat5 phosphorylation in NK-92 cells; value = ≥ 6.70

GET /values?item= C=CC(=O)Nc1cccc(Oc2nc(Nc3ccc(N(C)[C@H]4CCN(CCS(C)(=O)=O)C4)cc3)ncc2OC)c1 [Compound I-57a] &system= Stat5 phosphorylation in NK-92 cells returns pIC50: 6.40 to 6.70

# value of pIC50, Stat5 phosphorylation in NK-92 cells, item C=CC(=O)Nc1cccc(Oc2nc(Nc3ccc4c(ccn4CCOC)c3)ncc2OC)c1 [Compound I-45a] = 6.40 to 6.70

###

Parameter: pIC50. Scope: all listed entries.
System: Stat5 phosphorylation in NK-92 cells
Assay: Western blotting assay for Stat5
Assay type: cell-based
Conditions: NK92, 1 hour, IL-2 stimulation, read-out: Stat5 inhibition
pIC50: −log10 of the molar value.

Example results:
- molecule: "C=CC(=O)Nc1cccc(Oc2nc(Nc3ccc(N4CCN(CCOC)CC4)cc3)nc3[nH]ccc23)c1 [Compound I-47a]"
  pIC50: "6.40 to 6.70"
- molecule: "C=CC(=O)Nc1cccc(Oc2nc(Nc3ccc(N4CCN(CCF)CC4)cc3)ncc2F)c1"
  pIC50: "6.40 to 6.70"
- molecule: "C=CC(=O)Nc1cccc(Oc2nc(Nc3ccc(N(C)CCOC)nc3)ncc2OC)c1 [Compound I-33a]"
  pIC50: "≤ 6.40"
- molecule: "C=CC(=O)Nc1cccc(Oc2nc(Nc3ccc4c(c3)CCN4CCOC)nc3[nH]ccc23)c1 [Compound I-36a]"
  pIC50: "6.40 to 6.70"
- molecule: "C=CC(=O)Nc1cccc(Oc2nc(Nc3ccc(N(CC)[C@H]4CCN(CCOC)C4)cc3)ncc2OC)c1 [Compound I-51a]"
  pIC50: "≤ 6.40"
- molecule: "C=CC(=O)Nc1cccc(Oc2nc(Nc3ccc(N[C@@H]4CCN(CCF)C4)cc3)ncc2OC)c1"
  pIC50: "≤ 6.40"

We now examine a further molecule.
Data point: C=CC(=O)Nc1cccc(Oc2nc(Nc3ccc(N(C)[C@H]4CCN(CCOC)C4)cc3)ncc2OC)c1 [Compound I-42a] ; pIC50 = ≤ 6.40
